# protocol-details: Pharmacokinetics after intravenous and oral administration in rats
# Format: in vivo
# condition-info: iv dosing, 1 mg/kg
Measured clearance (CL) values are reported for all entries that follow.
quantity: clearance (CL)

> print(dat)
                                   compound  measured.result
1  Cc1c2ccc(Nc3ncc(Cl)c(NC4CCN(c5ccc(C#N)cn5)CC4)n3)cc2nn1C   7.17 mL/min/kg
2  CCC1CN(c2ccc(C#N)cn2)CCC1Nc1nc(Nc2ccc3c(C)n(C)nc3c2)ncc1Cl (stereo not shown)   6.83 mL/min/kg
3  CCC1CN(c2ccc(C#N)cn2)CCC1N(C)c1nc(Nc2cc(C)n(C)n2)ncc1Cl (stereo not shown)   23.7 mL/min/kg
4  Cc1c2ccc(Nc3ncc(Cl)c(NC4CCN(c5ccc(C#N)nn5)CC4)n3)cc2nn1C   11.3 mL/min/kg

----------
# system: JAK2 (h) (Homo sapiens)
# Sequence (O60674 whole entry): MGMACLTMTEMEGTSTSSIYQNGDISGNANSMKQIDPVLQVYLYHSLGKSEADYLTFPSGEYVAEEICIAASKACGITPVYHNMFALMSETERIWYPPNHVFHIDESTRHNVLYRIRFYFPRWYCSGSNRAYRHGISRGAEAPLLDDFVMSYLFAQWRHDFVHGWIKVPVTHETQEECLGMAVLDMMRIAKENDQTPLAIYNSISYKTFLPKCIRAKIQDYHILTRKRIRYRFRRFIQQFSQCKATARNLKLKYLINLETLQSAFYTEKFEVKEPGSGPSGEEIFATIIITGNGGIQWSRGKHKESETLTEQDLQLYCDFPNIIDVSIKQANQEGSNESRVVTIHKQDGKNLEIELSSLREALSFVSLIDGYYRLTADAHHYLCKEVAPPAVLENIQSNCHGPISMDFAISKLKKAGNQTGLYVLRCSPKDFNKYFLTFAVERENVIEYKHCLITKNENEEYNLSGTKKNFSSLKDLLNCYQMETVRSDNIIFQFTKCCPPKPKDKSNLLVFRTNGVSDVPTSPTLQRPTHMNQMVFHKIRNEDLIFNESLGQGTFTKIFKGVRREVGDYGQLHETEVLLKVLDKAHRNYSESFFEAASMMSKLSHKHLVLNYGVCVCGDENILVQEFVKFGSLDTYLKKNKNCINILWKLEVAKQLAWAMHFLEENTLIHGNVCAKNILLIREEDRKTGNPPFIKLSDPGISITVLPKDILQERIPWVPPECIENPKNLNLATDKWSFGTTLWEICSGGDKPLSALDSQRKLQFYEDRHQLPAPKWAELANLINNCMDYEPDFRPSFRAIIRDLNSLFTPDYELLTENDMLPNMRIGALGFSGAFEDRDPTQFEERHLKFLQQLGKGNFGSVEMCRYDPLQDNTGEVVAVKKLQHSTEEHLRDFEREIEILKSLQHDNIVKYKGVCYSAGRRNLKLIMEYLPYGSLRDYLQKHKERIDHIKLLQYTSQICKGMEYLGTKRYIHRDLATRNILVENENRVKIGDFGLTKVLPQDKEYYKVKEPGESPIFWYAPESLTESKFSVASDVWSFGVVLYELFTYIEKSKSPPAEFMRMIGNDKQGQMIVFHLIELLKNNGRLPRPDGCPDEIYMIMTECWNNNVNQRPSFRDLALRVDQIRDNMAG
quantity: IC50 (nM)

> print(dat)
                                   molecule  comparison.symbol  measured.result
1  Cc1nn(C)cc1Nc1ncc(Cl)c(NC2CCN(c3ccc(C#N)nn3)CC2)n1 [Ex. 11]                  =                2
2  Cc1cc(Nc2ncc(Cl)c(NC3CCN(c4ccc(C#N)cn4)CC3)n2)nn1C [Ex. 2]                  =                3
3  Cc1cc(Nc2ncc(Cl)c(NC3CCN(c4ccc(C#N)nn4)CC3)n2)nn1C [Ex. 13]                  =                1
4  Cc1c2ccc(Nc3ncc(Cl)c(NC4CCN(c5ccc(C#N)nn5)CC4)n3)cc2nn1C [Ex. 12]                  <              0.3
5  Cc1c2ccc(Nc3ncc(Cl)c(NC4CCN(c5ccc(C#N)cn5)CC4)n3)cc2nn1C [Ex. 4]                  =                2
6  Cc1cc(Nc2ncc(Cl)c(NC3CCN(c4ccc(C#N)cn4)CC3)n2)n[nH]1 [Ex. 3]                  =                2
7  Cc1nn(C)cc1Nc1ncc(Cl)c(N(C)C2CCN(c3ccc(C#N)cn3)CC2)n1 [Ex. 14]                  =              175

----------
Measured clearance (CL) values are reported for all entries that follow.
# protocol-details: Pharmacokinetics after intravenous and oral administration in rats
# Type: in vivo
# condition-info: iv dosing, 1 mg/kg
# Experimental: The LC/MS/MS system used in the analysis consists of an Agilent 1200 Series vacuum degasser, binary pump, well-plate autosampler, thermostatted column compartment, the Agilent G6430 Triple Quadrupole Mass Spectrometer with an electrosprayionization (ESI) source. Quantitative analysis was carried out using MRM mode. The parameters for MRM transitions are in the Table A. […] The compounds disclosed herein are assessed in pharmacokinetic studies in mice, rats, dogs or monkeys. […]
quantity: clearance (CL) (mL/min/kg)

> print(dat)
                                   molecule        quantity  measured.result
1  CCC1CN(c2ccc(C#N)cn2)CCC1Nc1nc(Nc2cn(C)nc2C)ncc1Cl (stereo not drawn)  clearance (CL)             23.3
2  CCC1CN(c2ccc(C#N)nn2)CCC1Nc1ccnc(Nc2cc(C)n(C)n2)n1 (stereo not drawn)  clearance (CL)             33.2
3  Cn1cc2ccc(Nc3ncc(Cl)c(NC4CCN(c5ccc(C#N)nn5)CC4)n3)cc2n1  clearance (CL)               14
4  Cn1cc(Nc2ncc(Cl)c(NC3CCN(c4ccc(C#N)cn4)CC3)n2)cn1  clearance (CL)             3.83
5  CN(c1nc(Nc2cnn(C)c2)ncc1Cl)C1CCN(c2ccc(C#N)cn2)CC1  clearance (CL)             29.7
6  Cc1cc(Nc2ncc(Cl)c(NC3CCN(c4ccc(C#N)cn4)CC3)n2)n[nH]1  clearance (CL)             17.2
7  CCC1CN(c2ccc(C#N)cn2)CCC1Nc1nc(Nc2cc(C)n(C)n2)ncc1Cl (stereo not drawn)  clearance (CL)             6.83
8  Cc1nn(C)cc1Nc1ncc(Cl)c(N(C)C2CCN(c3ccc(C#N)cn3)CC2)n1  clearance (CL)             61.2
9  CCC1CN(c2ccc(C#N)nn2)CCC1Nc1nc(Nc2cc(C)n(C)n2)ncc1Cl (stereo not drawn)  clearance (CL)             8.67

Where these numbers come from: patent US10059689B2
